Each entry below carries its reported fold change in EC50 vs wild-type GT1a.
Tested on: NS3 GT1a mutant replicons
Format: cell-based, HCV
conditionDescription: mutant R155K + M28T + Y448H
readout: fold change in EC50 vs wild-type GT1a (fold)

molecule: CC(C)OC(=O)[C@H](C)N[P@](=O)(OC[C@H]1O[C@@](C#N)(c2ccc3c(N)ncnn23)[C@](C)(O)[C@@H]1OC(=O)C(C)C)Oc1ccccc1
readingUnit: fold
obsValue: 0.3
--
molecule: CC[C@@H]1C[C@]1(NC(=O)[C@@H]1C[C@@H](Oc2cc(-c3csc(NC(C)C)n3)nc3c(Cl)c(OCCN4CCOCC4)ccc23)CC1C(=O)[C@@H](NC(=O)O[C@@H]1C[C@@H]2C[C@@H]2C1)C(C)(C)C)C(=O)O (stereo partly shown)
readingUnit: fold
obsValue: 89.0
--
molecule: COC(=O)N[C@H](C(=O)N1CC2(CC2)C[C@H]1c1ncc(-c2ccc3c(c2)C(F)(F)c2cc(-c4ccc5nc([C@@H]6[C@H]7CC[C@H](C7)N6C(=O)[C@@H](NC(=O)OC)C(C)C)[nH]c5c4)ccc2-3)[nH]1)C(C)C
readingUnit: fold
obsValue: 53.0
--
molecule: CC1=CC[C@H](C(=O)N(c2cc(C#CC(C)(C)C)sc2C(=O)O)[C@H]2CC[C@](O)(CO[C@H]3CCOC3)CC2)CC1
readingUnit: fold
obsValue: 0.3

---

System: GT-1b Huh-lunet cells
method: Biological Example 4: antiviral combination studies with Compound 5 (MacSynergy II)
Type: cell-based, HCV
conditionDescription: in combination with Compound 5, 1b replicon cells
Each entry below carries its reported Antagonism Volume.

compound: CC[C@@H]1C[C@]1(NC(=O)[C@@H]1C[C@@H](Oc2cc(-c3csc(NC(C)C)n3)nc3c(Cl)c(OCCN4CCOCC4)ccc23)CC1C(=O)[C@@H](NC(=O)O[C@@H]1C[C@@H]2C[C@@H]2C1)C(C)(C)C)C(=O)O (stereo partly shown)
readingUnit: nM^2
Antagonism Volume: −2
//
compound: COC(=O)N[C@H](C(=O)N1CC2(CC2)C[C@H]1c1ncc(-c2ccc3c(c2)C(F)(F)c2cc(-c4ccc5nc([C@@H]6[C@H]7CC[C@H](C7)N6C(=O)[C@@H](NC(=O)OC)C(C)C)[nH]c5c4)ccc2-3)[nH]1)C(C)C
readingUnit: nM^2
Antagonism Volume: 0
//
compound: Fc1ccccc1-c1nc2ccn(Cc3ccc(-c4ccc(C(F)(F)F)cc4C(F)(F)F)nn3)cc-2n1
readingUnit: nM^2
Antagonism Volume: 0
//
compound: NC(=O)c1ncn([C@@H]2O[C@H](CO)[C@@H](O)[C@H]2O)n1 [Ribavirin, reference compound]
readingUnit: nM^2
Antagonism Volume: −12

---

Each entry below carries its reported fold change in EC50 vs wild-type GT1a.
Test system: NS3 GT1a mutant replicons
Assay type: cell-based, HCV
conditionDescription: mutant R155W

compound: CC(C)OC(=O)[C@H](C)N[P@](=O)(OC[C@H]1O[C@@](C#N)(c2ccc3c(N)ncnn23)[C@](C)(O)[C@@H]1OC(=O)C(C)C)Oc1ccccc1
fold change in EC50 vs wild-type GT1a / fold: 0.7
--
compound: COC(=O)N[C@H](C(=O)N1CC2(CC2)C[C@H]1c1ncc(-c2ccc3c(c2)C(F)(F)c2cc(-c4ccc5nc([C@@H]6[C@H]7CC[C@H](C7)N6C(=O)[C@@H](NC(=O)OC)C(C)C)[nH]c5c4)ccc2-3)[nH]1)C(C)C
fold change in EC50 vs wild-type GT1a / fold: 0.7
--
compound: CC1=CC[C@H](C(=O)N(c2cc(C#CC(C)(C)C)sc2C(=O)O)[C@H]2CC[C@](O)(CO[C@H]3CCOC3)CC2)CC1
fold change in EC50 vs wild-type GT1a / fold: 1.0
--
compound: CC[C@@H]1C[C@]1(NC(=O)[C@@H]1C[C@@H](Oc2cc(-c3csc(NC(C)C)n3)nc3c(Cl)c(OCCN4CCOCC4)ccc23)CC1C(=O)[C@@H](NC(=O)O[C@@H]1C[C@@H]2C[C@@H]2C1)C(C)(C)C)C(=O)O (stereo partly shown)
fold change in EC50 vs wild-type GT1a / fold: 32.1
